# experimentalTarget: Gal4DBD/AaEcR (DEF) (Aedes aegypti, UniProt P49880)
# Construct: The wildtype D, E, and F domains from mosquito Aedes aegypti EcR; expressed in transfected cells; host or cells: 3T3 cells
# Sequence (P28704 286-520 A311G/G315S/G445S/I449V): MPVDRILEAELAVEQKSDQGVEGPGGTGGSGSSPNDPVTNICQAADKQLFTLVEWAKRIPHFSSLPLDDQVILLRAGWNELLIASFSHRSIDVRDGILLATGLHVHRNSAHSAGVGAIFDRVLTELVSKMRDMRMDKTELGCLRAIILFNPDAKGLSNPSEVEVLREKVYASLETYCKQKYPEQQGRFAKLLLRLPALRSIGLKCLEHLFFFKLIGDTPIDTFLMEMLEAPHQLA
# Sequence (P49880 405-776): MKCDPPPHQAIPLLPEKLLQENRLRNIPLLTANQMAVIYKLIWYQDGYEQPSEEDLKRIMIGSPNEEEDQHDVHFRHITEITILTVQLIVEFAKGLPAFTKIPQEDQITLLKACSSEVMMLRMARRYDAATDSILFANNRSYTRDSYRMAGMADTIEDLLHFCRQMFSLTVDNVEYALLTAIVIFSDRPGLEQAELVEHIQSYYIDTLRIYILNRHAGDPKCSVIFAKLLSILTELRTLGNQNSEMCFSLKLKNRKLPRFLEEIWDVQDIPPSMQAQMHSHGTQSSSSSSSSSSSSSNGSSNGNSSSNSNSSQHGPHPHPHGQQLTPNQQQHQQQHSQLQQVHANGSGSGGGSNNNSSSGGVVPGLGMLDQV
# protocolSummary: cell-based
# Assay type: cell-based
# particulars: 33 μM; 3T3 cells; 48 h; average of two wells
Threshold check on Fold Induction Average, AA_3T3V1 Assay 33 μM: strictly below 300 fold is True; on or above 300 fold is False.

Is the reported Fold Induction Average, AA_3T3V1 Assay 33 μM for C[C@H]1C[C@@H](Nc2ccc(F)cc2)c2cc(F)ccc2N1C(=O)c1ccc(F)cc1 (relative stereo) strictly below 300 fold?
True

Same question, Cc1cccc(NC(=O)N2c3ccc(F)cc3[C@@H](Nc3ccc(F)cc3)C[C@@H]2C)c1 (relative stereo) this time
False

What would you report for C[C@H]1C[C@H](Nc2ccc(F)cc2)c2cc(F)ccc2N1C(=O)c1ccccc1 (relative stereo) ?
False

What do we get for CCCc1ccc(C(=O)N2c3ccccc3C(Nc3ccccc3)CC2C)cc1 (stereo not shown) ?
True

Same question for CC1CC(Nc2ccccc2)c2ccccc2N1C(=O)c1ccc(Cl)nc1 (stereo not shown) please.
False

Next molecule: CC1CC(Nc2ccccc2)c2ccccc2N1C(=O)c1ccno1 (stereo not shown)
False

// repeat for Cc1ccc(C(=O)N2c3ccccc3[C@H](Nc3ccccc3)C[C@@H]2C)cc1F (relative stereo) and report
True
